Measured values drawn from patent US8853230B2 for this set.

- targetSystem: JAK1 (Homo sapiens)
- Construct: 5 μl of catalytic domain recombinant Kinase enzyme+Tyr peptide substrate (Invitrogen, Calif.)
- Sequence (P23458 875-1153 limits assumed): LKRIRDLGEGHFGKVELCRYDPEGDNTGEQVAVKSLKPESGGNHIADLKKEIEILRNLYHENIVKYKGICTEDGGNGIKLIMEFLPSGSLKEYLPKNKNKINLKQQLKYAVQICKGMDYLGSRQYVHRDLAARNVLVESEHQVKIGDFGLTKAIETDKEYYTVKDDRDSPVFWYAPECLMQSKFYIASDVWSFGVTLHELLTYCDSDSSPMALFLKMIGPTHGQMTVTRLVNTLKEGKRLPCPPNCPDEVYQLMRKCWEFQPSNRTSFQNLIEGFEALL
- testDetails: Z'-LYTE kinase assay, JAK1 tyrosine phosphorylation activity
- measurementConditions: read-out: JAK 1 IC50
propertyName: IC50

- chemSmiles: "C[C@@H](Nc1nc(Nc2ccc(Cl)c(NC(=O)N3CCCCC3)c2)ncc1C(N)=O)c1ccccc1"
  targetSystem: "JAK1 (Homo sapiens)"
  IC50: "> 1000 nM"

Input: Lab request: please report IC50 under test system JAK1 (Homo sapiens) for CC(=O)Nc1cccc(Nc2ncc(C(N)=O)c(NCc3cccc(F)c3F)n2)c1
Output: 10 to 100 nM

Input: Return IC50 measured with JAK1 (Homo sapiens) given this molecule: CNC(=O)c1cnc(Nc2cccc(NC(=O)COC)c2)nc1NCc1ccccc1
Output: > 1000 nM

###

Reported IC50 values follow for various compounds
- targetSystem: JAK3 (Homo sapiens, UniProt P52333)
- Construct: 5 μl of catalytic domain recombinant Kinase enzyme+Tyr peptide substrate (Invitrogen, Calif.)
- Sequence (P52333 822-1111 limits assumed): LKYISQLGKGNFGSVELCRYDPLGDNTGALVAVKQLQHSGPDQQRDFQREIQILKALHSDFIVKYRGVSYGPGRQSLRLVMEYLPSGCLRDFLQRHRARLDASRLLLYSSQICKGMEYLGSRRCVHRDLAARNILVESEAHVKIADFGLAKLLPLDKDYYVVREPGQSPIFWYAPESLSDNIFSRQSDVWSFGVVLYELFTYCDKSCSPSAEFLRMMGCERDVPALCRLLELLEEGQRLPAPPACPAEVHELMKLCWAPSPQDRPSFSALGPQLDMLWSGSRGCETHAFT
- testDetails: Z'-LYTE kinase assay, JAK3 tyrosine phosphorylation activity

- compound: "N#CCC(=O)Nc1cccc(Nc2ncc(C(N)=O)c(NCc3cccc(F)c3)n2)c1"
  targetSystem: "JAK3 (Homo sapiens, UniProt P52333)"
  readoutValue: "< 1 nM"
- compound: "C[C@@H](Nc1nc(Nc2cccc(NC(=O)N3CCC(O)CC3)c2)ncc1C(N)=O)c1ccccc1"
  targetSystem: "JAK3 (Homo sapiens, UniProt P52333)"
  readoutValue: "1 to 10 nM"
- compound: "CC(=O)Nc1cccc(Nc2ncc(C(=O)O)c(NCC3CCNC3)n2)c1 (stereo not drawn)"
  targetSystem: "JAK3 (Homo sapiens, UniProt P52333)"
  readoutValue: "10 to 100 nM"
- compound: "NC(=O)c1cnc(Nc2cccc(NC(=O)N3CC[C@H](F)C3)c2)nc1NCc1ccccc1"
  targetSystem: "JAK3 (Homo sapiens, UniProt P52333)"
  readoutValue: "< 1 nM"
- compound: "CC(=O)Nc1cccc(Nc2ncc(C(N)=O)c(NC[C@@H](C)c3ccccc3)n2)c1"
  targetSystem: "JAK3 (Homo sapiens, UniProt P52333)"
  readoutValue: "1 to 10 nM"
- compound: "CC(=O)Nc1cccc(Nc2ncc(C(N)=O)c(N[C@H]3CCC[C@@H]3O)n2)c1 (relative stereo)"
  targetSystem: "JAK3 (Homo sapiens, UniProt P52333)"
  readoutValue: "1 to 10 nM"
- compound: "CN(C(=O)N1CCCC1)c1cc(Nc2ncc(C(N)=O)c(NCc3ccccc3)n2)ccc1Cl"
  targetSystem: "JAK3 (Homo sapiens, UniProt P52333)"
  readoutValue: "10 to 100 nM"
- compound: "CC(=O)Nc1cccc(Nc2cc(NCc3cccc(F)c3F)c(C(N)=O)cn2)c1"
  targetSystem: "JAK3 (Homo sapiens, UniProt P52333)"
  readoutValue: "1 to 10 nM"
- compound: "CC(=O)Nc1cccc(Nc2ncc(C(N)=O)c(NC3CCC3)n2)c1"
  targetSystem: "JAK3 (Homo sapiens, UniProt P52333)"
  readoutValue: "1 to 10 nM"
- compound: "C[C@@H](Nc1nc(Nc2cccc(NC(=O)N3CC=CC3)c2)ncc1C(N)=O)c1ccccc1"
  targetSystem: "JAK3 (Homo sapiens, UniProt P52333)"
  readoutValue: "1 to 10 nM"

Input: Which value of IC50 has been reported for CNC(=O)Nc1cc(Nc2ncc(C(N)=O)c(NCc3ccccc3)n2)ccc1Cl in the records?
Output: 1 to 10 nM

Input: Which IC50 value is on record for CC(=O)Nc1cc(Nc2ncc(C(N)=O)c(NCc3cccc(F)c3)n2)ccc1OCCN1CCCC1 ?
Output: 1 to 10 nM

Input: // IC50 lookup, key: CC(=O)N(C)c1cccc(Nc2ncc(C(N)=O)c(NCc3ccccc3)n2)c1
Output: 1 to 10 nM

Input: Form field: reported IC50 of CNC(=O)Nc1cc(Nc2ncc(C(N)=O)c(NCc3ccccc3)n2)ccc1OC
Output: 1 to 10 nM

Input: Given CNC(=O)CNc1nc(Nc2cccc(NC(C)=O)c2)ncc1C(N)=O , state its recorded IC50.
Output: 10 to 100 nM

###

- targetSystem: JAK2 (Homo sapiens)
- Construct: 5 μl of catalytic domain recombinant Kinase enzyme+Tyr peptide substrate (Invitrogen, Calif.)
- testDetails: Z'-LYTE kinase assay, JAK2 tyrosine phosphorylation activity
pIC50: −log10 of the molar value.
propertyName: pIC50

Use these answered entries as a reference point.
- compound: "COCC(=O)Nc1cc(Nc2ncc(C(N)=O)c(N[C@H](C)c3ccccc3)n2)ccc1Cl"
  pIC50: "6.00 to 7.00"
- compound: "CC(=O)Nc1cccc(Nc2ncc(C(N)=O)c(NC3CC3c3ccccc3)n2)c1 (stereo not shown)"
  pIC50: "7.00 to 8.00"
- compound: "CC(=O)Nc1cccc(Nc2ncc(C(N)=O)c(NCc3ccncc3)n2)c1"
  pIC50: "6.00 to 7.00"

Then there is this compound:
Input: I have this compound here, CC(C)[C@@H](C)Nc1nc(Nc2ccc(Cl)c(NC(=O)N3CCCC3)c2)ncc1C(N)=O , and I need its recorded pIC50.
Output: 7.00 to 8.00

###

- targetSystem: JAK3 (Homo sapiens, UniProt P52333)
- Construct: 5 μl of catalytic domain recombinant Kinase enzyme+Tyr peptide substrate (Invitrogen, Calif.)
- testDetails: Z'-LYTE kinase assay, JAK3 tyrosine phosphorylation activity
pIC50: −log10 of the molar value.
propertyName: pIC50

Worked set:
- chemSmiles: "CC(=O)Nc1cccc(Nc2ncc(C(N)=O)c(Nc3cccc4c3cnn4C)n2)c1"
  targetSystem: "JAK3 (Homo sapiens, UniProt P52333)"
  pIC50: "8.00 to 9.00"
- chemSmiles: "NC(=O)c1cnc(Nc2cccc(NC(=O)N3CCCC3)c2)nc1NC1CCCC1"
  targetSystem: "JAK3 (Homo sapiens, UniProt P52333)"
  pIC50: "8.00 to 9.00"
- chemSmiles: "CC(=O)Nc1cccc(Nc2ncc(C(N)=O)c(N[C@@H]3CCCNC3)n2)c1"
  targetSystem: "JAK3 (Homo sapiens, UniProt P52333)"
  pIC50: "6.00 to 7.00"
- chemSmiles: "NC(=O)c1cnc(Nc2cccc(NC(=O)C3CCC3)c2)nc1NC1CCCC1"
  targetSystem: "JAK3 (Homo sapiens, UniProt P52333)"
  pIC50: "8.00 to 9.00"
- chemSmiles: "CC(=O)Nc1cccc(Nc2ncc(C(N)=O)c(N[C@H](C)C(C)C)n2)c1"
  targetSystem: "JAK3 (Homo sapiens, UniProt P52333)"
  pIC50: "> 9.00"

Input: # pIC50 lookup, item CNC(=O)Nc1cc(Nc2ncc(C(N)=O)c(NCc3cccc(Cl)c3)n2)ccc1Cl
Output: 7.00 to 8.00

Input: For CC(=O)Nc1cccc(Nc2ncc(C(N)=O)c(NCc3ccc(Cl)c(Cl)c3)n2)c1 , what is its reported pIC50?
Output: 6.00 to 7.00

Input: Would you mind telling me what pIC50 value was observed for CC(=O)Nc1cc(Nc2ncc(C(N)=O)c(Nc3cccc4c3cnn4C)n2)ccc1OCCN1CCCC1 ?
Output: 8.00 to 9.00

###

- targetSystem: JAK2 (Homo sapiens, UniProt O60674)
- Construct: 5 μl of catalytic domain recombinant Kinase enzyme+Tyr peptide substrate (Invitrogen, Calif.)
- Sequence (O60674 849-1124 limits assumed): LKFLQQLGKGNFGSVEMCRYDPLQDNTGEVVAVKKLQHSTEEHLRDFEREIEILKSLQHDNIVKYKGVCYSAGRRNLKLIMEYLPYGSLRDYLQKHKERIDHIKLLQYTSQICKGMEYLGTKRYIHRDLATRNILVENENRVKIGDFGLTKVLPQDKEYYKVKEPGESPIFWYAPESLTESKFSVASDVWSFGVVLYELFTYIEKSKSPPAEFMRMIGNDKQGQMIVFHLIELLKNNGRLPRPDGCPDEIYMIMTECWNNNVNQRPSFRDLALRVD
- testDetails: Z'-LYTE kinase assay, JAK2 tyrosine phosphorylation activity
pIC50: −log10 of the molar value.
propertyName: pIC50

Below are worked cases with known answers.
- molecule: "CC(=O)Nc1cccc(Nc2ncc(C(N)=O)c(NCC(N)=O)n2)c1 [Example 50]"
  readoutValue: "6.00 to 7.00"
- molecule: "NC(=O)c1cnc(Nc2cccc(NC(=O)C3CC3)c2)nc1NCc1ccccc1 [Example 26]"
  readoutValue: "7.00 to 8.00"
- molecule: "CC(=O)Nc1cccc(Nc2cc(N[C@H](CO)c3ccccc3)c(C(N)=O)cn2)c1 [Example 316]"
  readoutValue: "6.00 to 7.00"
- molecule: "C[C@@H](Nc1nc(Nc2cccc(NC(=O)N3CC=CC3)c2)ncc1C(N)=O)c1ccccc1 [Example 121]"
  readoutValue: "7.00 to 8.00"

Input: For the molecule shown here, C[C@@H](Nc1nc(Nc2cccc(NC(=O)N3CCC(O)CC3)c2)ncc1C(N)=O)c1ccccc1 [Example 215] , give the reported pIC50.
Output: 7.00 to 8.00

Input: Form field: reported pIC50 of COCC(=O)Nc1ccc(F)c(Nc2ncc(C(N)=O)c(NCc3ccccc3)n2)c1 [Example 172]
Output: 6.00 to 7.00

Input: Fill blank: measured pIC50 of the molecule CC(=O)Nc1cccc(Nc2ncc(C(N)=O)c(NC[C@H](C)O)n2)c1 [Example 82] is ____.
Output: 7.00 to 8.00

Input: GET /values?readout=pIC50&item= CC(=O)Nc1cccc(Nc2ncc(C(N)=O)c(NCc3cccc(F)c3)n2)c1 [Example 94]
Output: 7.00 to 8.00
